target: T1, PD-L1/Fc (UniProt Q9NZQ7 19-238, limits assumed); assay: SPR (Biacore 8K), prokaryotically expressed antibody as ligand, PD-L1/Fc as analyte, 1:1 binding model
T1 construct: not shown: Fc part
T1 sequence (Q9NZQ7 19-238 limits assumed): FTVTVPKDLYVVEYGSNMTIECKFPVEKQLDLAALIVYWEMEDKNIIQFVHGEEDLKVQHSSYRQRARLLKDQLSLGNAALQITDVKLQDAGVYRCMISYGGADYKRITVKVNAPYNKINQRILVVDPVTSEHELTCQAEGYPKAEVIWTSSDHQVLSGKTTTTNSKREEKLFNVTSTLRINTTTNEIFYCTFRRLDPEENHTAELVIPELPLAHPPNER
Collected koff values appear next to each entry.
Reply numerically in s⁻¹, unit not repeated.

Use the examples below as a reference point.
binder	koff / s⁻¹
AH01947 (prokaryotically expressed antibody product) (Fab, V domains shown) VH: QVQLQESGPGLVKPSQTLSLTCTVSGYSITSGYTWHWIRQHPGKGLEWIGYIHYSGSTKYNPSLKSRVTISVDTSKNQFSLKLSSVTAADTAVYYCARNSLFASWGQGTLVTVSS VL: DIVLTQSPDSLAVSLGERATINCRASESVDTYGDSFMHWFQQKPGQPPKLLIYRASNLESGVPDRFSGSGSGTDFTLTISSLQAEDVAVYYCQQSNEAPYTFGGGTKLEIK	4.38e-05
AH01964 (prokaryotically expressed antibody product) (Fab, V domains shown) VH: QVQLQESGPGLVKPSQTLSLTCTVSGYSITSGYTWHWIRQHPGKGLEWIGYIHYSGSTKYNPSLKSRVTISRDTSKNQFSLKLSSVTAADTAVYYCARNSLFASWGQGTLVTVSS VL: DIVMTQSPDSLAVSLGERATINCRASESVDTYGDSFMHWYQQKPGQPPKLLIYRASNLESGVPDRFSGSGSGTDFTLTISSLQAEDVAVYYCQQSNEAPYTFGGGTKL	2.48e-05
AH01946 (prokaryotically expressed antibody product) (Fab, V domains shown) VH: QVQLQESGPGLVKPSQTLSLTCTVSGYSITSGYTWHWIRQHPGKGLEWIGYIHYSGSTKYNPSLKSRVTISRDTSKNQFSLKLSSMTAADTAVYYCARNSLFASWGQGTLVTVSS VL: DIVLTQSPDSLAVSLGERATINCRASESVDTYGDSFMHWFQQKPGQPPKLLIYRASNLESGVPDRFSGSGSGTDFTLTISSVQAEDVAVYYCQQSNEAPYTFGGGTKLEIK	4.72e-06
AH02029 (prokaryotically expressed antibody product) (Fab, V domains shown) VH: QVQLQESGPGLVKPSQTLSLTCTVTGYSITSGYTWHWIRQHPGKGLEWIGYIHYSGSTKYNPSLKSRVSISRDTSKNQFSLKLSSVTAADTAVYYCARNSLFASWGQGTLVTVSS VL: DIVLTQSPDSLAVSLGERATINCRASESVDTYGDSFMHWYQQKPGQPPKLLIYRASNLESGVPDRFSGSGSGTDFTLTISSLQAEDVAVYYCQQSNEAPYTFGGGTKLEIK	1.93e-05

Here is the next item to consider.
Q: Look up koff: AH02030 (prokaryotically expressed antibody product) (Fab, V domains shown) VH: QVQLQESGPGLVKPSQTLSLTCTVTGYSITSGYTWHWIRQHPGKGLEWIGYIHYSGSTKYNPSLKSRFTITRDTSKNQFSLKLSSVTAADTAVYYCARNSLFASWGQGTLVTVSS VL: DIVLTQSPDSLAVSLGERATINCRASESVDTYGDSFMHWYQQKPGQPPKLLIYRASNLESGVPDRFSGSGSRTDFTLTISSLQAEDVAVYYCQQSNEAPYTFGGGTKLEIK
A: 1.58e-05

Data provenance: patent US20220073618A1
